# experimental_details: A: acetonitrile + 0.1% formic acid + 10 mM ammonium formate; B: 5% water + 95% acetonitrile + 0.1% formic acid + 10 mM ammonium formate; gradient (min/%B) 0/10 2/10 22/100 27/100 27.1/10
# test_parameters: stereoisomer not certain

compound	result_units	LC retention time
CC(=O)NC1C(O)CC(O)(C(=O)O)OC1C(O)C(O)CO (stereo not drawn) [N-Acetylneuraminic acid]	min	6.84
CNCCC(Oc1ccc(C(F)(F)F)cc1)c1ccccc1 (stereo not drawn) [Fluoxetine]	min	0.978
O=c1cc(-c2ccccc2)oc2cc(O)cc(O)c12 [Chrysin]	min	0.434
Cc1cnc(NC(=O)C2=C(O)c3ccccc3S(=O)(=O)N2C)s1 [Meloxicam]	min	0.416
Cn1c(=O)[nH]c2[nH]c(=O)[nH]c2c1=O [1-Methyluric acid]	min	3.32
CCCCCC(=O)OCC(COC(=O)CCCCC)OC(=O)CCCCC [Glycerol Trihexanoate]	min	0.406
COc1ccc2c(c1OC)=CN1CCc3cc4c(cc3C1C=2)OCO4 (stereo not drawn) [Berberine]	min	0.872
CCCC(NC(C)C(=O)N1C(C(=O)O)CC2CCCCC21)C(=O)OCC (stereo not drawn) [Perindopril erbumine]	min	0.553

----------
# experimental_details: A: acetonitrile + 0.1% formic acid + 10 mM ammonium formate; B: 5% water + 95% acetonitrile + 0.1% formic acid + 10 mM ammonium formate; gradient (min/%B) 0/10 2/10 22/100 27/100 27.1/10
# test_parameters: stereoisomer not certain
Short version: LC retention time at least 3 min is met, less is not met.

compound	assigned_category
O=C(O)C/C=C/CC(=O)O [trans-2-Butene-1,4-dicarboxylic Acid]	met
COc1cc(OC)cc(OC)c1	not met
O=C(O)CNC(=O)c1ccc(O)cc1 [2-[(4-Hydroxyphenyl)formamido]acetic acid]	met
CC(=O)NCCCCCN [N-(5-Aminopentyl)acetamide]	met
CC(CN)C(=O)O (stereo not given)	met
O=c1[nH]cnc2c1ncn2C1CC(O)C(CO)O1 (stereo not given)	not met
CNC(CC(C)C)C(=O)NC1C(=O)NC(CC(N)=O)C(=O)NC2C(=O)NC3C(=O)NC(C(=O)NC(C(=O)O)c4cc(O)cc(O)c4-c4cc3ccc4O)C(O)c3ccc(c(Cl)c3)Oc3cc2cc(c3OC2OC(CO)C(O)C(O)C2OC2CC(C)(N)C(O)C(C)O2)Oc2ccc(cc2Cl)C1O (stereo not given)	met
O=C(O)c1cccnc1	not met
CC(C=CC=C(C)C=CC1=C(C)CCCC1(C)C)=CC=O [All trans-Retinal]	not met
O=c1[nH]c(=O)c2ncn(C3OC(CO)C(O)C3O)c2[nH]1 (stereo not given)	met

----------
# experimental_details: A: acetonitrile + 0.1% formic acid + 10 mM ammonium formate; B: 5% water + 95% acetonitrile + 0.1% formic acid + 10 mM ammonium formate; gradient (min/%B) 0/10 2/10 22/100 27/100 27.1/10
# test_parameters: stereoisomer not certain
Classification by LC retention time | ranges: bin 1 = under 0.5 min, bin 2 = from 0.5 min up to 2 min, bin 3 = 2 min and over

compound	assigned_category
O=C(C=CC=Cc1ccc2c(c1)OCO2)N1CCCCC1	bin 1
Cc1cc2nc[nH]c2cc1C	bin 2
CCCCOC(=O)CCCCCCCCC(=O)OCCCC [Dibutyl sebacate]	bin 1
CCOC(=O)CCC(=O)OCC [Diethyl succinate]	bin 1
Cn1cnc(=N)c2[nH]cnc21	bin 3
CC(C)(N)C(=O)O	bin 3
O=c1c(O)c(-c2ccc(O)c(O)c2)oc2cc(O)cc(O)c12	bin 2
CC(=O)OCC(=O)C12OC3(CCCC3)OC1CC1C3CCC4=CC(=O)C=CC4(C)C3(F)C(O)CC12C (stereo unspecified) [Amcinonide]	bin 1
CCc1cccc2c3c([nH]c12)C(CC)(CC(=O)O)OCC3 (stereo unspecified)	bin 1
CCCC(=O)Nc1ccc(OCC(O)CNC(C)C)c(C(C)=O)c1 (stereo unspecified)	bin 3
CC(C)Oc1ccc2c(=O)c(-c3ccccc3)coc2c1	bin 2
NC(COP(=O)(O)O)C(=O)O (stereo unspecified)	bin 3
Cc1ncc(CO)c(CO)c1O	bin 2
O=C(O)C=Cc1cnc[nH]1	bin 2
CC(=O)CC(=O)CCC(=O)O	bin 2
OCCc1c[nH]c2ccccc12	bin 2
CC(C)n1c(C=CC(O)CC(O)CC(=O)O)c(-c2ccc(F)cc2)c2ccccc21 (stereo unspecified)	bin 2
CCCCNC(=O)NS(=O)(=O)c1ccc(C)cc1 [Tolbutamide]	bin 1
COC(=O)C1=CCCN(C)C1	bin 3
NC(=O)c1ccc[n+](C2OC(COP(=O)(O)OP(=O)([O-])OCC3OC(n4cnc5c(N)ncnc54)C(OP(=O)(O)O)C3O)C(O)C2O)c1 (stereo unspecified)	bin 3

----------
# experimental_details: A: acetonitrile + 0.1% formic acid + 10 mM ammonium formate; B: 5% water + 95% acetonitrile + 0.1% formic acid + 10 mM ammonium formate; gradient (min/%B) 0/10 2/10 22/100 27/100 27.1/10
# test_parameters: stereoisomer not certain
Below, each entry is listed alongside its reported LC retention time.

molecule	result_units	LC retention time
COc1cc(CC(=O)O)ccc1O [4-Hydroxy-3-methoxyphenylacetic Acid]	min	0.535
NCC(=O)NCC(=O)O	min	7.02
COc1cc(C=CC(=O)O)cc(OC)c1O	min	0.561
Cn1cnc2c1c(=O)[nH]c(=O)n2C	min	0.687
CCOC(=O)C1=CC(OC(CC)CC)C(NC(C)=O)C(N)C1 (stereo not given)	min	2.47
CCN(Cc1cccc(S(=O)(=O)O)c1)c1ccc(C(=C2C=CC(=[N+](CC)Cc3cccc(S(=O)(=O)O)c3)C=C2)c2ccccc2S(=O)(=O)[O-])cc1	min	4.34
CNC(=C[N+](=O)[O-])NCCSCc1ccc(CN(C)C)o1	min	3.12
NCCS(=O)(=O)O	min	5.82
NCCC(=O)NC(Cc1cnc[nH]1)C(=O)O (stereo not given)	min	7.75
NC(=O)CCC(NC(=O)Cc1ccccc1)C(=O)O (stereo not given)	min	3.83
CCC(=C(c1ccccc1)c1ccc(OCCN(C)C)cc1)c1ccccc1	min	0.887
Nc1ncnc2c1ncn2C1OC(COP(=O)(O)O)C(O)C1O (stereo not given) [Adenosine-5'-monophosphate]	min	6.76
O=c1[nH]c(=O)c2[nH]cnc2[nH]1	min	2.92
CN(CC(=O)O)C(N)=NP(=O)(O)O [Creatine phosphate]	min	7.86
CC12C=CC(=O)C=C1CCC1C2C(O)CC2(C)C1CCC2(O)C(=O)CO (stereo not given) [Hydroretrocortine]	min	0.485
CC(=O)NCCCNCCCCNCCCN	min	8.5
CC1CNC(=O)NC1=O (stereo not given) [5,6-Dihydro Thymine]	min	0.621
CN(C)Cc1c[nH]c2ccccc12	min	1.61
CCOC(=O)c1cncn1C(C)c1ccccc1 (stereo not given) [Etomidate]	min	0.602
CN(C)CCC=C1c2ccccc2CCc2ccccc21	min	0.977

----------
# experimental_details: A: acetonitrile + 0.1% formic acid + 10 mM ammonium formate; B: 5% water + 95% acetonitrile + 0.1% formic acid + 10 mM ammonium formate; gradient (min/%B) 0/10 2/10 22/100 27/100 27.1/10
# test_parameters: stereoisomer not certain
# LC retention time listing for each entry below

compound	result_units	LC retention time
Cc1c[nH]c(=O)[nH]c1=O	min	0.793
Cn1c[n+](C2OC(CO)C(O)C2O)c2nc(N)nc([O-])c21 (stereo not given)	min	5.34
Cn1c(=O)[nH]c2ncn(C)c2c1=O	min	0.655
CC1OC(OC2C(CO)OC(OC3C(CO)OC(O)C(O)C3O)C(O)C2O)C(O)C(O)C1NC1C=C(CO)C(O)C(O)C1O (stereo not given)	min	8.07
O=C/C=C/c1ccccc1 [trans-Cinnamaldehyde]	min	0.43
NC(=O)c1cccnc1 [Niacinamide]	min	0.678
C[N+](C)(C)CC(=O)[O-]	min	5.7
COC(=O)c1cccnc1 [Methyl nicotinate]	min	0.625
CC(C=CC1=C(C)CCCC1(C)C)=CC=CC(C)=CC(=O)O	min	0.433
CN(C)CCCC1(c2ccc(F)cc2)OCc2cc(C#N)ccc21 (stereo not given)	min	0.991

----------
# experimental_details: A: acetonitrile + 0.1% formic acid + 10 mM ammonium formate; B: 5% water + 95% acetonitrile + 0.1% formic acid + 10 mM ammonium formate; gradient (min/%B) 0/10 2/10 22/100 27/100 27.1/10
# test_parameters: stereoisomer not certain
# note: boundary value 0.8 min maps to Not satisfied; LC retention time below it maps to Satisfied

molecule	assigned_category
Nc1nc(N)c2nc(-c3ccccc3)c(N)nc2n1	Not satisfied
CN(C)CCCN1c2ccccc2Sc2ccc(Cl)cc21	Not satisfied
COc1ccc(-c2coc3cc(O)ccc3c2=O)cc1	Satisfied
CC(N)c1ccccc1 (stereo unspecified)	Not satisfied
NCCCC[C@H](N)C(=O)O	Not satisfied
O=c1c(-c2ccc(O)cc2)coc2cc(O)cc(O)c12	Satisfied
CNC(=O)c1cccnc1 [N'-Methylnicotinamide]	Satisfied
CN1CC(=O)NC1=N	Not satisfied
O=C(O)c1cc(=O)c2ccccc2[nH]1	Not satisfied
O=C(O)C(=O)Cc1c[nH]c2ccccc12	Satisfied
CSc1ccc2c(c1)N(CCC1CCCCN1C)c1ccccc1S2 (stereo unspecified)	Not satisfied
CCCCCC(=O)NCC(=O)O	Not satisfied
Cn1c(=O)c2[nH]cnc2n(C)c1=O	Satisfied
CC(C)OC(=O)C(C)(C)Oc1ccc(C(=O)c2ccc(Cl)cc2)cc1 [Fenofibrate]	Satisfied
COc1ccc(-c2coc3cc(O)cc(O)c3c2=O)cc1	Satisfied
N[C@@H](Cc1ccc(O)cc1)C(=O)O	Not satisfied
COC(=O)Cc1c[nH]c2ccccc12 [Methyl 3-indolyacetate]	Satisfied
COc1ccc2[nH]cc(CC(N)C(=O)O)c2c1 (racemic)	Not satisfied
CC(CS)C(=O)N1CCCC1C(=O)O (stereo unspecified)	Not satisfied
NC(Cc1cccc(O)c1)C(=O)O (racemic)	Not satisfied
